- System: UniProt P11387
- Assay procedure: Inhibition of recombinant human Top1 expressed in Saccharomyces cerevisiae null strain RS190 assessed as decrease in relaxation of supercoiled plasmid DNA at 100 uM using supercoiled plasmid DNA as substrate incubated for 15 sec by red staining based DNA relaxation assay relative to camptothecin
Reported endpoint: inhibition (%)

In the examples that follow, each entry is paired with its recorded inhibition.
1) COc1ccc2c(n1)[C@@H](c1ccccc1)[C@@H]1COc3ccccc3[C@H]1N2 (relative stereo)
81
2) Cc1ccc2c(c1)-c1nc3cccnc3c(-c3ccccc3)c1CO2
2
3) O=c1oc2ccccc2c2nc3ccc(Br)nc3c(-c3ccccc3)c12
4
4) COc1ccc(-c2c3c(nc4cccnc24)-c2ccccc2OC3)cc1
29
5) c1ccc([C@@H]2c3ncccc3N[C@@H]3c4ccccc4OC[C@@H]23)cc1 (relative stereo)
5

a = COc1ccc2c(n1)[C@@H](c1ccccc1)[C@@H]1C(=O)Oc3ccccc3[C@H]1N2 (relative stereo)
b = Fc1ccc2c(c1)[C@H]1Nc3cccnc3[C@@H](c3ccccc3)[C@@H]1CO2 (relative stereo)
c = O=c1oc2ccc(F)cc2c2nc3cccnc3c(-c3ccccc3)c12
d = Fc1ccc(-c2c3c(nc4cccnc24)-c2ccccc2OC3)cc1F
// query Please put the entries in order of rising inhibition. Please list each label once, in the requested order.
// result b, a, c, d
(b: 2%, a: 4%, c: 26%, d: 84%)

====

- System: DNA topoisomerase 1 (Homo sapiens)
- Sequence (whole entry): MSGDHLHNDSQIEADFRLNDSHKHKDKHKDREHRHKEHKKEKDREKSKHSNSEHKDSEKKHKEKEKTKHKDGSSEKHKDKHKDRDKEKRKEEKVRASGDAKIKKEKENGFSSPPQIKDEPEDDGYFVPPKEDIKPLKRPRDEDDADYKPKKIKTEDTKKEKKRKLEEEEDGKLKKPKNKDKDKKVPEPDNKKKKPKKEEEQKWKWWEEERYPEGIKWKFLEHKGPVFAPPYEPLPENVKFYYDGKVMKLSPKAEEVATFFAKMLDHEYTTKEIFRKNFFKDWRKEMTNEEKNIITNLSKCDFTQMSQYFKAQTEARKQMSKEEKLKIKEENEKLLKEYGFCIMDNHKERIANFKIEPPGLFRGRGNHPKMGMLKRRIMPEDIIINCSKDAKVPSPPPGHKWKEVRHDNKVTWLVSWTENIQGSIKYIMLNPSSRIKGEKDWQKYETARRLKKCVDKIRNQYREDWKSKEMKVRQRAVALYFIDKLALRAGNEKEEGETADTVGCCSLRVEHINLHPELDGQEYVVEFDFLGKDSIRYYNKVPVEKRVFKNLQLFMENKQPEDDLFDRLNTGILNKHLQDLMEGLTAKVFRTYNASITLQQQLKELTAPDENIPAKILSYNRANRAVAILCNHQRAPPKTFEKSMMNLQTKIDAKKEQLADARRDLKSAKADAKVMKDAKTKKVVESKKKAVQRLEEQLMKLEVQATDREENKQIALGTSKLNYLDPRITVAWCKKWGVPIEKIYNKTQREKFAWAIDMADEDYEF
- Assay procedure: Inhibition of recombinant human Top1 expressed in Saccharomyces cerevisiae null strain RS190 assessed as decrease in relaxation of supercoiled plasmid DNA at 100 uM using supercoiled plasmid DNA as substrate incubated for 1 min by red staining based DNA relaxation assay relative to camptothecin
Reported endpoint: inhibition (%)

1) O=c1oc2ccccc2c2nc3ccc(Br)nc3c(-c3ccccc3)c12
4

A = COc1ccc2nc3c(c(-c4ccccc4)c2n1)c(=O)oc1ccccc13
B = Cc1ccc2c(c1)[C@H]1Nc3cccnc3[C@@H](c3ccccc3)[C@@H]1CO2 (relative stereo)
C = Fc1ccc(-c2c3c(nc4cccnc24)-c2ccccc2OC3)cc1F
D = O=c1oc2ccc(F)cc2c2nc3cccnc3c(-c3ccccc3)c12
E = O=C1Oc2ccccc2[C@H]2Nc3ccc(Br)nc3[C@@H](c3ccccc3)[C@H]12 (relative stereo)
// query Hello, I need these entries ordered by inhibition, highest reading first. Thanks! Please list each label once, in the requested order.
// result B, A, C, E, D
(B: 69%, A: 12%, C: 6%, E: 4%, D: 2%)

A = COc1ccc2nc3c(c(-c4ccccc4)c2n1)COc1ccccc1-3
B = Fc1ccc2c(c1)-c1nc3cccnc3c(-c3ccccc3)c1CO2
C = Brc1ccc2nc3c(c(-c4ccccc4)c2n1)COc1ccccc1-3
// query Hello, I need these entries ordered by inhibition, highest reading first. Thanks! Please list each label once, in the requested order.
// result A, C, B

A = c1ccc(-c2c3c(nc4cccnc24)-c2ccccc2OC3)cc1
B = O=C1Oc2ccccc2[C@H]2Nc3cccnc3[C@@H](c3ccccc3)[C@H]12 (relative stereo)
// query Pick one, A or B : lowest reported inhibition. Could you answer with the label of the item you picked?
// result B
